Kindly supply the reported Ki values for the records listed here.
- TEST SYSTEM: recombinant Mcl-1 (residues 172-327) (Homo sapiens (Human), UniProt Q07820)
- Sequence (Q07820 172-327): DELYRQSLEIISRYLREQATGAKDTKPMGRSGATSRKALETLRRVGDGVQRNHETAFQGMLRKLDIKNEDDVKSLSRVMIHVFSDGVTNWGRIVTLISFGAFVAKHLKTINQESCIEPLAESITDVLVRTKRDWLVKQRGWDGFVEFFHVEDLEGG
- PROTOCOL NOTES: Fluorescence polarization anisotropy competition assay (FITC-Bak or FITC-Bim BH3 peptide) with Mcl-1
- Assay type: binding
- PROTOCOL CONDITIONS: Table 2; Ki bins given in nM; FITC-Bak or FITC-Bim peptide competition; Ki converted from IC50; read-out: Ki for Inhibition of Mcl-1

What the record says about Cc1cc(OCCCc2c(C(=O)NCc3ccc(C(=O)NS(C)(=O)=O)o3)[nH]c3ccccc23)cc(C)c1Cl : Ki is 101 to 299 nM

What the record says about Cc1cc(OCCCc2c3n(c4c(-c5c(C)nn(C)c5C)c(Cl)ccc24)CCCN(Cc2cc(C(=O)O)cc(Cl)n2)C3=O)cc(C)c1Cl [I-298] : Ki is < 50 nM

What the record says about Cc1cc(OCCCc2c3n(c4c(-c5c(C)nn(C)c5C)c(Cl)ccc24)CCN(c2cncc(C(=O)O)c2)C3=O)cc(C)c1Cl : Ki is < 50 nM

What the record says about Cc1cc(OCCCc2c3n(c4c(-c5c(C)nn(C)c5C)c(Cl)ccc24)CCCN(Cc2ccc(C(=O)NS(=O)(=O)c4ccc(OCc5cccnc5)cc4)cc2)C3=O)cc(C)c1Cl : Ki is < 50 nM

What the record says about Cc1cc(OCCCc2c(C(=O)Nc3cccc(CC(=O)O)c3)[nH]c3c(-c4c(C)nn(C)c4C)cccc23)cc(C)c1Cl : Ki is < 50 nM

What the record says about Cc1cc(OCCCc2c3n(c4c(-c5c(C)nn(C)c5C)c(Cl)ccc24)CCCN(c2cccc(CC(=O)O)c2)C3=O)cc(C)c1Cl : Ki is < 50 nM

What the record says about Cc1cc(OCCCc2c3n(c4c(-c5c(C)nn(C)c5C)c(Cl)ccc24)CCCN(c2ccc(C#N)cc2)C3=O)cc(C)c1Cl : Ki is 51 to 100 nM

What the record says about Cc1cc(OCCCc2c(C(=O)Nc3cc(Br)cc(C(=O)O)c3)[nH]c3c(-c4c(C)nn(C)c4C)c(Cl)ccc23)cc(C)c1Cl : Ki is < 50 nM

What the record says about Cc1cc(OCCCc2c3n(c4c(-c5c(C)nn(C)c5C)c(Cl)ccc24)CCCN(c2cccc(-c4nn[nH]n4)c2)C3=O)cc(C)c1Cl : Ki is < 50 nM

What the record says about Cc1cc(OCCCc2c3n(c4c(-c5c(C)nn(C)c5C)c(Cl)ccc24)CCCN(Cc2cc(OCCCC(C)C)cc(C(=O)O)c2)C3=O)cc(C)c1Cl : Ki is < 50 nM

What the record says about Cc1cc(OCCCc2c3n(c4c(-c5c(C)nn(C)c5C)c(Cl)ccc24)CCCN(c2cc(C(=O)O)c4cnn(C)c4c2)C3=O)cc(C)c1Cl : Ki is < 50 nM

What the record says about Cc1cc(OCCCc2c3n(c4c(-c5c(C)nn(C)c5C)cccc24)CCCN(Cc2cc(C(=O)O)cc([N+](=O)[O-])c2)C3=O)cc(C)c1Cl : Ki is < 50 nM

What the record says about Cc1cc(OCCCc2c(C(=O)NC3CCN(C(=O)C(=O)O)CC3)[nH]c3c(-c4c(C)nn(C)c4C)cccc23)cc(C)c1Cl : Ki is < 50 nM
